Entry source: ChEMBL document CHEMBL3507680

Exercise: for every item that follows, state its recorded cytotoxicity at 70.5 h.
assay: Human HepG2 cell viability assay in 384 well format; type: toxicity, cell-based; design: dose 125 nL, time 70.5 hour; concentration not given beside the values; conditions: HepG2 cells, read-out: Inhibition
Return type: number; implicit unit %.

May I ask what cytotoxicity at 70.5 h has been recorded for COCC1c2c(cnn2C)CCN1Cc1ccco1 (centres undefined) ?
-0.607

Look up cytotoxicity at 70.5 h for this compound: Cc1cnn(CC2CCCN2C(=O)c2ccc(F)c(F)c2)c1 (centres undefined)
-0.479

cytotoxicity at 70.5 h for `COc1cc(CNCc2ccc(-n3nc(C)cc3C)nc2)cc(OC)c1` ?
-5.72

Entry `Cn1ncc2c(N3CCN(C(=O)c4ccsc4)CC3)ncnc21` : reported cytotoxicity at 70.5 h = ?
-4.15

For the compound Cc1cc(C)n(CCC(=O)N2CCCCC2c2nccs2)n1 (centres undefined) , what cytotoxicity at 70.5 h is on record?
11.9

Which cytotoxicity at 70.5 h value is on record for `CC(C)(C)c1cc(NC(=O)CN2CCc3cncnc3C2)on1` ?
3.44

# get_value(readout='cytotoxicity at 70.5 h', item= C1CCC(CN2Cc3nnn(CC4CC4)c3C(COCC3CC3)C2)C1 (centres undefined) )
-8.05

May I ask what cytotoxicity at 70.5 h has been recorded for O=C(NCCc1ccccc1Cl)NCC1(O)CCSC1 (centres undefined) ?
3.74

Name the reported cytotoxicity at 70.5 h value associated with the compound `Cn1cc(I)c(C(=O)NC2CCCCC2)n1`
28.2

Using the record for `N#Cc1cccc(Oc2ccc(CN3CCCC3)cc2Cl)n1` , report its cytotoxicity at 70.5 h.
18.1

Quick one: cytotoxicity at 70.5 h for `COCC(=O)N(C)Cc1ccc(Cl)c(Cl)c1` ?
-12.6

Fill in the blank: the reported cytotoxicity at 70.5 h of Cn1cc(Cl)cc1C(=O)N1CCC2(CCCN(CC3CC3)C2=O)C1 (centres undefined) is ____.
24.1

Could you share which cytotoxicity at 70.5 h value was measured for `CN1N=C(C(=O)NCc2ccc3c(c2)CCCN3C)CCC1=O` ?
5.34

What value of cytotoxicity at 70.5 h has been recorded for this entry: `CCCS(=O)(=O)N[C@H]1CN(c2ncccc2C(N)=O)C[C@@H]1C(C)C`
0.22

Entry `CC(=O)N(C)Cc1cccc(NC(=O)N(C)Cc2nccs2)c1` has what cytotoxicity at 70.5 h?
-4.8

Recorded cytotoxicity at 70.5 h of Cn1cc(C2CCCN2C(=O)CCCOc2ccccc2F)cn1 (centres undefined) , please.
-2.53

I am curious: what cytotoxicity at 70.5 h value has been reported for COc1ccccc1CNC(=O)COc1ccc2c(c1)OCC2O (centres undefined) ?
-5.21

Give the measured cytotoxicity at 70.5 h of CS(=O)(=O)N1CCN(c2cc(N3CCCC3CO)ncn2)CC1 (centres undefined) .
-7.63

For the compound Cc1nn(C)c(N2CCOCC2)c1CNC(C)c1ccco1 (centres undefined) , what cytotoxicity at 70.5 h is on record?
10.7

Quick one: cytotoxicity at 70.5 h for CN(C)Cc1ccnc(C2CCCN2Cc2ccc3ncccc3c2)n1 (centres undefined) ?
1.4

Return reported cytotoxicity at 70.5 h; argument: `NC(=O)c1csc(N2C[C@@H](CN3CCC(O)CC3)[C@@H](CO)C2)n1`
-6.31

Sample c1coc(-c2nc(CN3CCOC(Cn4cccn4)C3)cs2)c1 (centres undefined) — what was its cytotoxicity at 70.5 h?
29.1

Entry `Cc1[nH]/c(=N\C(=O)c2csc(NC3CCCC3)n2)sc1C` : reported cytotoxicity at 70.5 h = ?
31.2

I have this compound here, CCc1ccc(C(=O)N2CCCC(c3noc(CC)n3)C2)o1 (centres undefined) , and I need its recorded cytotoxicity at 70.5 h.
-2.81

Query: cytotoxicity at 70.5 h; subject: `Cc1nc(-c2ccsc2)ccc1C(=O)NCCN1CCOCC1`
0.983

Which cytotoxicity at 70.5 h is listed for Cc1cc(C2CCCN2C(=O)NCc2cccnc2)on1 (centres undefined) ?
-7.94

Field request: cytotoxicity at 70.5 h | item: COC1CCCOC12CCN(C(=O)NCCc1cccs1)CC2 (centres undefined)
-0.941

// lookup cytotoxicity at 70.5 h for `N#Cc1ccc(CN2CCCN(C(=O)CCn3cncn3)CC2)cc1`
-10.9

Which value of cytotoxicity at 70.5 h has been reported for `CC(C)OCc1ncn2c1CN(CCO)CCC2` in the records?
-0.995

# lookup: cytotoxicity at 70.5 h of Cc1nc(C2CCCN2CC(=O)Nc2c(C)n[nH]c2C)no1 (centres undefined)
39

Would you mind telling me what cytotoxicity at 70.5 h value was observed for `CC(=O)c1nn(-c2cccc(Cl)c2)c(C)c1C(C)=O` ?
-12.9

// lookup cytotoxicity at 70.5 h for COc1ccc(C(C)NCc2ccnn2C)cc1Cn1cccn1 (centres undefined)
-6.58

Consider the compound `CN(C)Cc1ccccc1CN(C)c1ncnc2[nH]ccc12` and give its measured cytotoxicity at 70.5 h.
-9.22

Could you tell me which cytotoxicity at 70.5 h is on file for CC(Nc1cccc(COCc2ccco2)c1)C(=O)NC(N)=O (centres undefined) ?
-23

Data request, read-out cytotoxicity at 70.5 h, for `Cn1cc(CN2C[C@@H]3COC[C@]3(C(=O)NCCc3ccccc3)C2)cn1`
-8.15

Please report the recorded cytotoxicity at 70.5 h for `CCN(CC)c1ccc(NC(=O)N2CCc3sccc3C2)cn1` .
-2.76

Item under review: `O=S(=O)(NCC1(c2cccs2)CCOCC1)c1cccnc1` . Reported cytotoxicity at 70.5 h?
-6.99

For the compound shown here, CCNC(=O)N1CCC2(C1)c1ccccc1S(=O)(=O)N2CCOC (centres undefined) , give the reported cytotoxicity at 70.5 h.
5.14

Fill in: cytotoxicity at 70.5 h of Cc1c[nH]c(C2COCCN2S(=O)(=O)c2cn[nH]c2)n1 (centres undefined) is ___
-12.8

For the compound shown here, `Cn1cc(CN2CCc3c(COCc4ccncc4)cncc3C2)cn1` , give the reported cytotoxicity at 70.5 h.
-6.18

Quick one: cytotoxicity at 70.5 h for `CCN(Cc1noc(CC(C)C)n1)Cc1ccccc1Cl` ?
1.69

// cytotoxicity at 70.5 h lookup, key: `Cc1cc(C)n(-c2ccc(CNCc3ccc(F)cc3F)cn2)n1`
-11.6

Suppose we examine the compound O=C1COC2(COCCN(Cc3ccsc3)C2)CN1c1ccc(F)cc1 (centres undefined) ; what cytotoxicity at 70.5 h value has been reported?
-2.28

# query: cytotoxicity at 70.5 h of entry `O=C(O)c1ccnc(-c2ccnc(NCCc3cscn3)n2)c1`
-2.9

# lookup: cytotoxicity at 70.5 h of Cc1ccnc(CC(C)N(C)c2cc(CN)nc(C)n2)c1 (centres undefined)
-5.59

Dear colleague, I am looking for the recorded cytotoxicity at 70.5 h of the following compound: `CN(Cc1cccnc1)C1CC2(CCN(c3ncc(F)cn3)CC2)C1`
-5.89

Could you tell me which cytotoxicity at 70.5 h is on file for `O=C(Nc1cc(Cl)ccn1)c1nc(N2CCCC2)ncc1Cl` ?
-2.78

Entry Clc1cc(N2CCN3CCCCC3C2)nc2[nH]ccc12 (centres undefined) has what cytotoxicity at 70.5 h?
-0.311

What cytotoxicity at 70.5 h value was documented for this compound, `CC1=C(CCN2C[C@H](O)[C@@H](N3CCOCC3)C2)C(C)(C)CCC1` ?
-8.76

----------
experiment: Human HepG2 cell viability assay in 384 well format; assay type: toxicity, cell-based; set-up: dose 125 nL, time 70.5 hour; concentration not given beside the values; details: HepG2 cells, read-out: Inhibition
outcomeMeasure: cytotoxicity at 70.5 h (%)
Give the number; % is assumed, so skip it.

So what's the measured cytotoxicity at 70.5 h for this one? `CN(C)C(=O)Cc1ccc(NC(=O)c2cn(C)nn2)cc1`
-4.9

What does the data say about its cytotoxicity at 70.5 h? Entry: `CCc1cc(N2CCC(NCCSc3nnnn3C)CC2)nc(C)n1`
-0.17

Entry O=C(NC1CCCc2nc(N3CCOCC3)ncc21)C1CCCC1 (configuration not stated) : reported cytotoxicity at 70.5 h = ?
-4.32

What does the record list as cytotoxicity at 70.5 h for `O=C(NCc1nncn1-c1ccccc1)C1CCCCC1` ?
-0.117

Recorded cytotoxicity at 70.5 h of CC(Nc1ccn(Cc2ccccn2)n1)C(=O)NC(C)(C)C (configuration not stated) , please.
-7.21

// query cytotoxicity at 70.5 h value for entry CN1CCOC(CNCCOc2ccc(C#N)cc2)C1 (configuration not stated)
-5.57

I would be grateful if you could share the reported cytotoxicity at 70.5 h for `Cc1ccc(CN2C[C@H]3C[C@H](C(=O)Nc4cccnc4)[C@@H](C2)O3)cc1` .
2.68

Given `CN(C)C(=O)CNC(=O)Nc1cccc(Cl)c1SC(F)F` , state its recorded cytotoxicity at 70.5 h.
-4.52

Quick one: cytotoxicity at 70.5 h for `CC(C)C(=O)NCCNC(=O)CCOc1cccc(F)c1` ?
-11.3

Returns the measured cytotoxicity at 70.5 h for the input compound. Input: Cc1nc(C)n(C2CCCN(C(=O)c3csc(C)n3)C2)n1 (configuration not stated)
-5.49

Given the compound `O=C(NCc1ccco1)[C@H]1C[C@H]2OCC[C@H]2N(C(=O)c2ccnnc2)C1` , what is its reported cytotoxicity at 70.5 h?
-12.6

Quick one: cytotoxicity at 70.5 h of `Cc1cnn(CCNCc2nc(COc3ccc(F)cc3)no2)c1` ?
6.22
